Consider the following IC50 data for Hepatocyte growth factor receptor (Homo sapiens), collected from several reports.

Determine its reported IC50: O=C(c1cc(F)ccc1F)N1CCNc2ncc(I)cc21
> 100000 nM

Determine its reported IC50: CCOC(=O)c1ccc(-c2cnc3c(c2)N(Cc2cc(F)ccc2F)C(=O)CN3)cc1
> 100000 nM

Determine its reported IC50: N#Cc1cccc(-c2ccc3nnc(Sc4ccc5nc(NC(=O)C6CC6)cn5n4)n3c2)c1
< 30 nM

Determine its reported IC50: O=C(c1cnc2c(c1)N(Cc1cc(Cl)ccc1Cl)CCN2)N1CCC[C@H]1CN1CCCC1
> 100000 nM

Determine its reported IC50: O=C(c1ccccc1)N1CCNc2ncc(-c3ccc(NS(=O)(=O)CCN4CCCC4)cc3)cc21
10000 to 100000 nM

Determine its reported IC50: CCN(CCC#N)S(=O)(=O)c1ccc(-c2ccnc(Nc3cccc(C)c3)n2)s1
< 1000 nM

Determine its reported IC50: CNCCOc1cc2nccc(Oc3ccc(NC(=O)c4cnccc4OC)c(F)c3F)c2cc1OC
≤ 100 nM

Determine its reported IC50: CCOC(=O)Nc1cccc(Cn2nc(-c3cccc(C(=O)NCCCCO)c3)ccc2=O)c1
10 to 1000 nM

Determine its reported IC50: Cc1ccc2nnc(Cc3ccc4ncc(-c5cccc(C(=O)O)c5)cc4c3)n2n1
100 to 1000 nM

Determine its reported IC50: N#Cc1cccc(-c2ccc3nnc(Sc4ccc5ncsc5c4)n3n2)c1
< 100 nM

Determine its reported IC50: CCOc1ccncc1C(=O)Nc1cc(F)c(Oc2ccnc3cc(OCCCNC)c(OC)cc23)c(F)c1
≤ 100 nM

Determine its reported IC50: COCCNC(=O)CCn1cc(-c2cnc(N)c(-c3nc4ccccc4s3)c2)cn1
1000 to 20000 nM

Determine its reported IC50: CNC(=O)CCn1cc(-c2cnc(N)c(-c3nc4ccccc4s3)c2)cn1
1000 to 20000 nM

Determine its reported IC50: CN1CCN(C(=O)c2ccc(-c3cnc4c(c3)N(Cc3cc(Cl)ccc3Cl)CCN4)cc2)CC1
1000 to 10000 nM

Determine its reported IC50: Cc1c(NS(C)(=O)=O)cccc1C(=O)c1c[nH]c2ncc(-c3ccccc3)cc12
≤ 10000 nM

Determine its reported IC50: CCOc1ccn(-c2ccc(F)cc2)c(=O)c1C(=O)Nc1ccc(Oc2ccnc3cc(OCCOC)c4c(c23)OCCO4)c(F)c1
≤ 50 nM

Determine its reported IC50: Cn1cc(C(=O)Nc2ccc(Oc3ccnc4cc(OCCCN5CCCCC5)c5c(c34)OCCO5)cc2Cl)c(=O)n(-c2ccc(F)cc2)c1=O
≤ 50 nM

---

Consider the following IC50 data for Hepatocyte growth factor receptor (Homo sapiens), collected from several reports.

Below, 2 compounds whose answers are already recorded.
[[record]]
compound = "CCOc1ccn(-c2ccc(F)cc2)c(=O)c1C(=O)Nc1ccc(Oc2ccnn3ccc(-c4cccc(N)c4)c23)c(F)c1"
readout_type = "IC50"
value_reported = "< 0.04 µM"

[[record]]
compound = "Nc1ncc(-c2cnn(C3CCNCC3)c2)cc1-c1nc2ccc(F)cc2s1"
readout_type = "IC50"
value_reported = "0.1 to 1 µM"


Name the recorded IC50 of CCOc1ccn(-c2ccc(F)cc2)c(=O)c1C(=O)Nc1ccc(Oc2ccnn3ccc(-c4cccc(C(C)(C)O)c4)c23)c(F)c1 , assay system Hepatocyte growth factor receptor (Homo sapiens).
< 0.04 µM

Name the recorded IC50 of CNCCOc1cc2nccc(Oc3c(F)cc(NC(=O)c4cnccc4OCC(F)F)cc3F)c2cc1OC , assay system Hepatocyte growth factor receptor (Homo sapiens).
≤ 0.1 µM

Name the recorded IC50 of O=C1CNc2ncc(-c3ccc(C(=O)N4CCC[C@H]4CN4CCCC4)cc3)cc2N1Cc1cc(F)c(F)cc1F , assay system Hepatocyte growth factor receptor (Homo sapiens).
10 to 100 µM

Name the recorded IC50 of O=C(c1ccc(-c2cnc3c(c2)N(Cc2cc(Cl)ccc2C(F)(F)F)CCN3)cc1)N1CCC(N2CCOCC2)CC1 , assay system Hepatocyte growth factor receptor (Homo sapiens).
0.1 to 1 µM

Name the recorded IC50 of COc1ccc(CN2CCN(C(=O)c3cnc4c(c3)N(Cc3cc(Cl)ccc3Cl)CCN4)CC2)cc1 , assay system Hepatocyte growth factor receptor (Homo sapiens).
10 to 100 µM

Name the recorded IC50 of CCc1ccncc1C(=O)Nc1cc(F)c(Oc2ccnc3cc(OCCNC)c(OC)cc23)c(F)c1 , assay system Hepatocyte growth factor receptor (Homo sapiens).
≤ 0.1 µM

Name the recorded IC50 of Fc1cc(F)cc(-c2ccc3nnc(Cc4ccc5ncsc5c4)n3n2)c1 , assay system Hepatocyte growth factor receptor (Homo sapiens).
0.1 to 1 µM

Name the recorded IC50 of COc1cc2c(Oc3c(F)cc(NC(=O)c4cnc(C)cc4OC4CC4)cc3F)ccnc2cc1OCCO , assay system Hepatocyte growth factor receptor (Homo sapiens).
≤ 0.1 µM

Name the recorded IC50 of CCNC(=O)c1ccc(-c2cnc3c(c2)N(Cc2ccccc2)C(=O)CN3)cc1 , assay system Hepatocyte growth factor receptor (Homo sapiens).
10 to 100 µM

Name the recorded IC50 of Cn1ncc2ccc(-c3n[nH]c4c3Cc3sc(-c5ccc(CN6CCCCC6)cc5)cc3-4)cc21 , assay system Hepatocyte growth factor receptor (Homo sapiens).
0.1 to 0.3 µM

Name the recorded IC50 of O=C(c1cnc2c(c1)N(Cc1cc(Cl)ccc1Cl)CCN2)N1CCC2(CC1)C(=O)NCN2c1ccccc1 , assay system Hepatocyte growth factor receptor (Homo sapiens).
> 100 µM

Name the recorded IC50 of CCOC(=O)Nc1cccc(Cn2nc(-c3ccc(CO)cc3)ccc2=O)c1 , assay system Hepatocyte growth factor receptor (Homo sapiens).
0.01 to 1 µM

Name the recorded IC50 of CC(c1cc(F)ccc1F)N1C(=O)CNc2ncc(I)cc21 (stereo not shown) , assay system Hepatocyte growth factor receptor (Homo sapiens).
> 100 µM

Name the recorded IC50 of CN(C[C@@H]1COCCO1)S(=O)(=O)Nc1ccc2ccc3ncc(-c4cnn(C)c4)cc3c(=O)c2c1 , assay system Hepatocyte growth factor receptor (Homo sapiens).
≥ 50 µM

Name the recorded IC50 of Nc1ncc(-c2cnn(C3CCNCC3)c2)cc1-c1nc2c(s1)CCCC2 , assay system Hepatocyte growth factor receptor (Homo sapiens).
≤ 0.1 µM

Name the recorded IC50 of COc1cc(-c2cnc3[nH]cc(-c4ccccc4OC)c3c2)ccc1OCCN1CCCC1 , assay system Hepatocyte growth factor receptor (Homo sapiens).
1 to 5 µM

Name the recorded IC50 of CCOc1cc(N)ncc1C(=O)Nc1cc(F)c(Oc2ccnc3cc(OCCCN4CCOCC4)c(OC)cc23)cc1F , assay system Hepatocyte growth factor receptor (Homo sapiens).
≤ 0.1 µM

Name the recorded IC50 of CCOC(=O)Nc1cccc(Cn2nc(-c3ccc(CNC(=O)CCN4CCCCC4)cc3)ccc2=O)c1 , assay system Hepatocyte growth factor receptor (Homo sapiens).
0.01 to 1 µM

Name the recorded IC50 of Nc1nccc(Oc2ccc(NC(=O)c3cc4ncsc4n(-c4ccc(F)cc4)c3=O)cc2F)c1Cl , assay system Hepatocyte growth factor receptor (Homo sapiens).
< 0.01 µM

Name the recorded IC50 of Cn1cc(-c2ccc3nnc(Cc4c(F)cc5ncccc5c4F)n3n2)cn1 , assay system Hepatocyte growth factor receptor (Homo sapiens).
< 0.1 µM
